The values you see were collected from paper PMC4847155.

biological target: Bax (Homo sapiens); test: biochemical; assay type: biochemical; conditions: read-out: EC50 in mitochondria; 20 nM Bax; mitochondria from Bax−/− Bak−/− BMK cells, Smac–mCherry release
observed.property: EC50
Record the result as a number with its unit.

Request the reported EC50 associated with CC(=O)[O][Hg][c]1ccccc1 [PMA, phenylmercuric acetate]
1300 nM

---

biological target: Bax (Homo sapiens, UniProt Q07812); assay: biochemical; type: biochemical
Where a name gives a salt, the structure may show the parent alone.
List of EC50 values.
Supply the numeric figure in nM, leaving out any unit text.

CC1=CC(=O)c2c(O)cccc2C1=O : 1500

Now look at this one.
So what's the measured EC50 for this one? CC(C)N(CCC(=O)c1ccc2ccccc2c1)Cc1ccccc1 [ZM, ZM39923 hydrochloride]
3500
